Cited source: paper PMC3192013

Listed here: items and their measured pIC50.
System: Stat3 (Stat3–Stat3:DNA complex, EMSA)
Test: EMSA, Stat3-Stat3:DNA disruption
Format: biochemical
Settings: nuclear extract
pIC50: −log10 of the molar value.

The following compounds have reported results that may help.
INSERT INTO measurements (compound, result) VALUES
  ('Cc1ccc(S(=O)(=O)N(C)CC(=O)N(Cc2ccc(C3CCN(C(=O)C(F)(F)F)CC3)cc2)c2ccc(C(=O)O)c(O)c2)cc1 [27ka, 27 ka]', '< 3.52'),
  ('Cc1ccc(S(=O)(=O)OCC(=O)N(Cc2ccccc2)c2ccc(C(=O)O)c(O)c2)cc1', '< 3.52'),
  ('Cc1ccc(S(=O)(=O)NCC(=O)N(Cc2ccc(C3CCCCC3)cc2)c2ccc(C(=O)O)c(O)c2)cc1', 4.02);

Lab note: next compound to report on.
Requested read-out pIC50, target or system Stat3 (Stat3–Stat3:DNA complex, EMSA), entry Cc1ccc(S(=O)(=O)N(C)CC(=O)N(CC2CCN(c3ccc(C#N)cc3)CC2)c2ccc(C(=O)O)c(O)c2)cc1 [27jc, 27 jc]
< 3.52

---

Listed here: items and their measured IC50.
Tested on: Stat3 (Stat3–Stat3:DNA complex, EMSA)
Experiment: EMSA, Stat3-Stat3:DNA disruption
Format: biochemical
Details: nuclear extract

The following compounds have reported results that may help.
INSERT INTO results (compound, assayed_system, result) VALUES
  ('Cc1ccc(S(=O)(=O)NCC(=O)N(Cc2ccccc2)c2ccc(C(=O)O)c(O)c2)cc1', 'Stat3 (Stat3–Stat3:DNA complex, EMSA)', '> 300 µM'),
  ('Cc1ccc(S(=O)(=O)N(C)CC(=O)N(CC2CCCCC2)c2ccc(C(=O)O)c(O)c2)cc1 [27e, 27 e]', 'Stat3 (Stat3–Stat3:DNA complex, EMSA)', '> 300 µM'),
  ('Cc1ccc(S(=O)(=O)N(CC(=O)Nc2ccc(C(=O)O)c(O)c2)C(=O)OC(C)(C)C)cc1', 'Stat3 (Stat3–Stat3:DNA complex, EMSA)', '> 300 µM'),
  ('Cc1ccc(S(=O)(=O)N(C)CC(=O)N(Cc2ccc(C(C)(C)C)cc2)c2ccc(C(=O)O)c(O)c2)cc1 [27f, SF-1-068]', 'Stat3 (Stat3–Stat3:DNA complex, EMSA)', '194 µM'),
  ('Cc1ccc(S(=O)(=O)N(C)CC(=O)N(Cc2ccc(C3CCNCC3)cc2)c2ccc(C(=O)O)c(O)c2)cc1 [27kb, 27 kb]', 'Stat3 (Stat3–Stat3:DNA complex, EMSA)', '> 300 µM');

Returns the measured IC50 for the input compound. Input: Cc1ccc(S(=O)(=O)NCC(=O)Nc2ccc(C(=O)O)c(O)c2)cc1
> 300 µM

Next: Cc1ccc(S(=O)(=O)N(C)CC(=O)N(Cc2ccc(C3CCN(C(=O)OC(C)(C)C)CC3)cc2)c2ccc(C(=O)O)c(O)c2)cc1 [27kc, 27 kc]
> 300 µM

---

Tested on: Stat3 (Stat3–Stat3:DNA complex, EMSA)
Test: EMSA, Stat3-Stat3:DNA disruption
Type: biochemical
Details: nuclear extract
parameter: IC50 (µM)

INSERT INTO measurements (compound, unit_of_measurement, result) VALUES
  ('Cc1ccc(S(=O)(=O)N(C)CC(=O)N(Cc2ccc(C3CCN(c4ccc(C#N)cc4)CC3)cc2)c2ccc(C(=O)O)c(O)c2)cc1 [27kd, 27 kd]', 'µM', 45);

1. Cc1ccc(S(=O)(=O)N(C)CC(=O)N(Cc2ccc(C#N)cc2)c2ccc(C(=O)O)c(O)c2)cc1 [27c, SF-1-073]
2. Cc1ccc(S(=O)(=O)N(C)CC(=O)N(Cc2ccc(C3CCN(S(=O)(=O)c4ccc(C#N)cc4)CC3)cc2)c2ccc(C(=O)O)c(O)c2)cc1 [27kg, 27 kg]
Determine, for 1 and 2 , which has the greater value of IC50. Write the label of whichever entry you select.
1

---

System: Stat3 (Stat3–Stat3:DNA complex, EMSA)
Assay: EMSA, Stat3-Stat3:DNA disruption
Assay type: biochemical
Conditions: nuclear extract; Table 2 prints 295 ± 35
parameter: IC50 (µM)
Respond with the bare value in µM.

Returns the measured IC50 for the input molecule. Input: Cc1ccc(S(=O)(=O)N(C)CC(=O)N(Cc2ccccc2)c2ccc(C(=O)O)c(O)c2)cc1
292
